Assay: Cytotoxicity against human HEK293 cells
Format: cell-based
Observed Property: CC50

Sample CC(=O)C1=C(O)/C(=C/c2ccc(C(F)(F)F)cc2)N(C(C)=O)C1=O — what was its CC50?
> 32 µg/mL

For CCCC(=O)C1=C(O)/C(=C/c2ccc(OC)cc2)N(C(C)=O)C1=O , what is its reported CC50?
> 32 µg/mL

Find the recorded CC50 belonging to CC(=O)C1=C(O)/C(=C/c2ccccc2)N(C(C)=O)C1=O and report it.
> 32 µg/mL

Name the reported CC50 value associated with the compound CCCC(=O)C1=C(O)/C(=C/c2ccccc2)N(C(C)=O)C1=O
> 32 µg/mL

Query: CC50; subject: CCCCCCCCCC(=O)C1=C(O)/C(=C/c2ccccc2)N(C(C)=O)C1=O
> 32 µg/mL

Name the recorded CC50 for CCCCCCCCCCCCCC(=O)C1=C(O)/C(=C/c2ccccc2)N(C(C)=O)C1=O .
> 32 µg/mL

Fill in the blank: the reported CC50 of CCCCCCCC(=O)C1=C(O)/C(=C/c2ccccc2)N(C(C)=O)C1=O is ____.
> 32 µg/mL

I am curious: what CC50 value has been reported for CCCCCCCCCCCCCCCC(=O)C1=C(O)/C(=C/c2ccccc2)N(C(C)=O)C1=O ?
> 32 µg/mL

----------
Record form. Attribute: inhibition at 32 µg/mL. Fill in for each entry.
Tested on: Staphylococcus aureus
Assay: Antibacterial activity against methicillin-resistant Staphylococcus aureus ATCC 43300 assessed as reduction in bacterial growth at 32 ug/ml by CLSI protocol based broth microdilution method relative to control
Format: functional
Note: unit % is implicit; provide only the numeric part.

Would you mind telling me what inhibition at 32 µg/mL value was observed for CC(=O)C1=C(O)/C(=C/c2ccc([N+](=O)[O-])cc2)N(C(C)=O)C1=O ?
38.6

Query: inhibition at 32 µg/mL; subject: CC(=O)C1=C(O)/C(=C/c2ccc(Cl)cc2)N(C(C)=O)C1=O
45.1

Tell me the measured inhibition at 32 µg/mL of CC(=O)C1=C(O)/C(=C/c2ccc(C(F)(F)F)cc2)N(C(C)=O)C1=O , please.
61.7

----------
Exercise: state measured inhibition at 32 µg/mL for each of the compounds provided.
Tested on: Staphylococcus aureus
Assay: Antibacterial activity against methicillin-resistant Staphylococcus aureus ATCC 43300 assessed as reduction in bacterial growth at 32 ug/ml by CLSI protocol based broth microdilution method relative to control
Format: functional

# returns recorded inhibition at 32 µg/mL (system: Staphylococcus aureus) for CC(=O)N1C(=O)C(C(=O)c2ccccc2)=C(O)/C1=C/c1ccccc1
73.1 to 99.2%

// lookup inhibition at 32 µg/mL | system=Staphylococcus aureus | key= CC(=O)C1=C(O)/C(=C/c2ccccc2)N(C(C)=O)C1=O
22.9 to 25.5%

# query: inhibition at 32 µg/mL | item CCCC(=O)C1=C(O)/C(=C/c2ccc(OC)cc2)N(C(C)=O)C1=O | system: Staphylococcus aureus
73.1 to 99.2%

Query the reported inhibition at 32 µg/mL for Staphylococcus aureus; item: CCCC(=O)C1=C(O)/C(=C/c2ccccc2)N(C(C)=O)C1=O
73.1 to 99.2%

Where these numbers come from: ChEMBL document CHEMBL4627351
